system: Rattus norvegicus; assay: Antiinflammatory activity in albino rat assessed as inhibition of carrageenan-induced paw edema at 0.28 mmol/kg, po administered 30 mins prior to carrageenan-challenge measured after 1 hr relative to control; assay type: functional
PROPERTY_NAME: inhibition in vivo at 280 µmol/kg

MOLECULAR_STRING	TGT	PROPERTY_NAME	REPORTED_VALUE
CCn1c(SCC(=O)Nc2ccc(/C(C)=N/O)cc2)nnc1-c1ccc(OC)cc1	Rattus norvegicus	inhibition in vivo at 280 µmol/kg	54%
C=CCn1c(SCC(=O)Nc2ccc(/C(C)=N/O)cc2)nnc1-c1cc(OC)c(OC)c(OC)c1	Rattus norvegicus	inhibition in vivo at 280 µmol/kg	49%
C=CCn1c(SCC(=O)Nc2ccc(C(C)=O)cc2)nnc1-c1ccccc1	Rattus norvegicus	inhibition in vivo at 280 µmol/kg	48%
C=CCn1c(SCC(=O)Nc2ccc(C(C)=O)cc2)nnc1-c1ccc(OC)cc1	Rattus norvegicus	inhibition in vivo at 280 µmol/kg	50%
CCn1c(SCC(=O)Nc2ccc(C(C)=O)cc2)nnc1-c1ccc(OC)c(OC)c1	Rattus norvegicus	inhibition in vivo at 280 µmol/kg	56%
CCn1c(SCC(=O)Nc2ccc(C(C)=O)cc2)nnc1-c1ccccc1	Rattus norvegicus	inhibition in vivo at 280 µmol/kg	50%

====

system: Rattus norvegicus; experiment: Ulcerogenic activity in albino rat carrageenan-induced paw edema model assessed as ulcer index at 0.28 mmol/kg, po (reference value: 0.60 +/- 0.05); type: toxicity, organism-based; settings: in vivo
Here, each record is paired with measured UI data.
PROPERTY_NAME: UI

MOLECULAR_STRING	REPORTED_VALUE
CCn1c(SCC(=O)Nc2ccc(C(C)=O)cc2)nnc1-c1ccccc1	7.12
C/C(=N\O)c1ccc(NC(=O)CSc2nnc(-c3ccccc3)n2-c2ccccc2)cc1	0.95
COc1ccc(-c2nnc(SCC(=O)Nc3ccc(C(C)=O)cc3)n2-c2ccccc2)cc1	5.53
CCn1c(SCC(=O)Nc2ccc(/C(C)=N/O)cc2)nnc1-c1ccc(OC)c(OC)c1	3.43
CCn1c(SCC(=O)Nc2ccc(C(C)=O)cc2)nnc1-c1ccc(OC)c(OC)c1	3.6
C=CCn1c(SCC(=O)Nc2ccc(C(C)=O)cc2)nnc1-c1ccc(OC)c(OC)c1	2.45
C=CCn1c(SCC(=O)Nc2ccc(/C(C)=N/O)cc2)nnc1-c1ccc(OC)cc1	2.69

====

system: Rattus norvegicus; assay: Antiinflammatory activity in albino rat assessed as inhibition of carrageenan-induced paw edema at 0.28 mmol/kg, po administered 30 mins prior to carrageenan-challenge measured after 1 hr relative to control; type: functional
inhibition in vivo at 280 µmol/kg: recorded values
PROPERTY_NAME: inhibition in vivo at 280 µmol/kg

MOLECULAR_STRING	TGT	REPORTED_VALUE
COc1ccc(-c2nnc(SCC(=O)Nc3ccc(C(C)=O)cc3)n2-c2ccccc2)cc1	Rattus norvegicus	29%
C=CCn1c(SCC(=O)Nc2ccc(/C(C)=N/O)cc2)nnc1-c1ccc(OC)c(OC)c1	Rattus norvegicus	53%
COc1ccc(-c2nnc(SCC(=O)Nc3ccc(/C(C)=N/O)cc3)n2-c2ccccc2)cc1OC	Rattus norvegicus	57%
COc1cc(-c2nnc(SCC(=O)Nc3ccc(/C(C)=N/O)cc3)n2-c2ccccc2)cc(OC)c1OC	Rattus norvegicus	59%
COc1cc(-c2nnc(SCC(=O)Nc3ccc(C(C)=O)cc3)n2-c2ccccc2)cc(OC)c1OC	Rattus norvegicus	49%
C=CCn1c(SCC(=O)Nc2ccc(C(C)=O)cc2)nnc1-c1cc(OC)c(OC)c(OC)c1	Rattus norvegicus	48%
COc1ccc(-c2nnc(SCC(=O)Nc3ccc(C(C)=O)cc3)n2-c2ccccc2)cc1OC	Rattus norvegicus	28%
C=CCn1c(SCC(=O)Nc2ccc(/C(C)=N/O)cc2)nnc1-c1ccc(OC)cc1	Rattus norvegicus	54%
CCn1c(SCC(=O)Nc2ccc(/C(C)=N/O)cc2)nnc1-c1ccc(OC)c(OC)c1	Rattus norvegicus	53%
CCn1c(SCC(=O)Nc2ccc(C(C)=O)cc2)nnc1-c1cc(OC)c(OC)c(OC)c1	Rattus norvegicus	46%
C/C(=N\O)c1ccc(NC(=O)CSc2nnc(-c3ccccc3)n2-c2ccccc2)cc1	Rattus norvegicus	50%
COc1ccc2c(c1)c(CC(=O)O)c(C)n2C(=O)c1ccc(Cl)cc1	Rattus norvegicus	51%
